Target: PRKACA (human)
Test: radiometric filter-binding kinase assay, Kinase HotSpot
Conditions: compound 0.5 µM; ATP 10 µM
Quick reference for residual activity among some compounds

Compound | Unit tag | residual activity
Nc1ccc2ncnc(NCCc3ccc(Oc4ccccc4)cc3)c2c1 | % | 88.6
Cc1ccc(Nc2nccc(N(C)c3ccc4c(C)n(C)nc4c3)n2)cc1S(N)(=O)=O | % | 94.5
Nc1cccc(-c2cc3c(Oc4cccc(O)c4)ncnc3[nH]2)c1 | % | 92.3
O=c1cc(N2CCOCC2)oc2c1ccc1ccccc12 | % | 102
O=C(Nc1cccc(Nc2nccc(Nc3cccc(C(F)(F)F)c3)n2)c1)C1CC1 | % | 91.7
CCN(CC)CCNC(=O)c1c(C)[nH]c(/C=C2\C(=O)Nc3ccc(F)cc32)c1C | % | 89.1
O=C1Nc2ccc(Cl)cc2/C1=C/c1cc(Cl)c(O)c(Cl)c1 | % | 101
O=C1NC(=O)/C(=C/c2ccc3c(c2)OC(F)(F)O3)S1 | % | 101
Cc1ccc(S(=O)(=O)/C=C/C#N)cc1 | % | 100
c1ccc(-c2n[nH]c3c2oc2ccccc23)cc1 | % | 97.5
CNC(=O)c1cc(Oc2ccc(NC(=O)Nc3ccc(Cl)c(C(F)(F)F)c3)cc2)ccn1 | % | 92.6
CCC(=O)Nc1ccc2ncnc(Nc3cccc(Br)c3)c2c1 | % | 94.6
CO[C@H]1CC2CC[C@@H](C)[C@@](O)(O2)C(=O)C(=O)N2CCCC[C@H]2C(=O)OC([C@H](C)C[C@@H]2CC[C@@H](O)[C@H](OC)C2)CC(=O)[C@H](C)/C=C(\C)[C@@H](O)[C@@H](OC)C(=O)[C@H](C)C[C@H](C)/C=C/C=C/C=C/1C (some centres not stated) | % | 99.8
O=C1NC(=O)c2c1c1c3ccccc3n3c1c1c2c2ccccc2n1C1CCC3O1 | % | 44.7
CCN(CC)CCNC(=O)c1c(C)[nH]c(/C=C2\C(=O)Nc3ccc(Cl)cc32)c1C | % | 90
O=C1NC(=O)C(c2cn(CCCn3ccnc3)c3ccccc23)=C1Nc1ccccc1 | % | 94
Nc1ncnc2[nH]nc(Nc3ccc(F)cc3)c12 | % | 96.8

* * *

Target: IKBKE (human) (UniProt Q14164)
Sequence (Q14164 whole entry, looked up): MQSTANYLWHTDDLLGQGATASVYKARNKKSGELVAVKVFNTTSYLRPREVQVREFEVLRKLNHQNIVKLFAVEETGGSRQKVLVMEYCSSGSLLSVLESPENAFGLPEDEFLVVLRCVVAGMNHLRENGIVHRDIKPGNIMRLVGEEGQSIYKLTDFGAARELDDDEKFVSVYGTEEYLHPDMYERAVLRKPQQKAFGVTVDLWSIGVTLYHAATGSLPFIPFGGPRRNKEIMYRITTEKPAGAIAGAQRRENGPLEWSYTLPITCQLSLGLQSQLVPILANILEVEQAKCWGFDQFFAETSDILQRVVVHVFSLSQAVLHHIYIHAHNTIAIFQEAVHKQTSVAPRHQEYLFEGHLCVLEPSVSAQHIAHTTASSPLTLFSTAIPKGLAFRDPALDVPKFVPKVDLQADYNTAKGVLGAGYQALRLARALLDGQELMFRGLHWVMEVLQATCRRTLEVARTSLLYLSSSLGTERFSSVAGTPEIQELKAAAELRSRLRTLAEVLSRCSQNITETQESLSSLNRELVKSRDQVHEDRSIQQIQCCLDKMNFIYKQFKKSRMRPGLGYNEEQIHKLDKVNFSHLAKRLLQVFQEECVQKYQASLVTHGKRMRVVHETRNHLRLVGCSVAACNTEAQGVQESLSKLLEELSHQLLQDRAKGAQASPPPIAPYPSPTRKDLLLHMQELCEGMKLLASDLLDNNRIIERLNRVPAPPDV
Assay: radiometric filter-binding kinase assay, Kinase HotSpot
Conditions: compound 0.5 µM; ATP 10 µM

Smiles representation | residual activity (%)
N#CC(C#N)=C(N)/C(C#N)=C/c1ccc(O)cc1 | 91
O=C1NC(=O)/C(=C/c2ccc3c(c2)OC(F)(F)O3)S1 | 101
CCN(CC)CCNC(=O)c1c(C)[nH]c(/C=C2\C(=O)Nc3ccc(F)cc32)c1C | 45.6
Nc1ncnc2c1c(-c1ccc(Oc3ccccc3)cc1)cn2C1CCCC1 | 97.4
Cc1ccc(NC2=CC(=O)c3sc(C)nc3C2=O)cc1 | 102
Nc1cccc(-c2cc3c(Oc4cccc(O)c4)ncnc3[nH]2)c1 | 88.1
CCCC(=O)Oc1ccc2[nH]c(C(=O)c3cc4ccccc4[nH]3)cc2c1 | 91.4
O=C1NC(=O)C(c2cn(CCCn3ccnc3)c3ccccc23)=C1Nc1ccccc1 | 87
CCN(CC)CCNC(=O)c1c(C)[nH]c(/C=C2\C(=O)Nc3ccc(Cl)cc32)c1C | 29.4
CC(C)N(CCC(=O)c1ccc2ccccc2c1)Cc1ccccc1 | 93
c1ccc(-c2n[nH]c3c2oc2ccccc23)cc1 | 101
CC(=O)c1ccc(N2CCOCC2)cc1O | 105
O=C1Nc2ccc(Cl)cc2/C1=C/c1cc(Cl)c(O)c(Cl)c1 | 94.7
CCN(CC)C(=O)c1ccc(Nc2nc(OCC3CCCCC3)c3nc[nH]c3n2)cc1 | 77.9
Oc1cccc(-c2nc(N3CCOCC3)c3oc4ncccc4c3n2)c1 | 98.8
Nc1ncnc2[nH]nc(Nc3ccc(F)cc3)c12 | 100
COc1ccc2c(c[n+](C)c3c4cc5c(cc4ccc23)OCO5)c1OC | 101
O=C(Nc1cccc(Nc2nccc(Nc3cccc(C(F)(F)F)c3)n2)c1)C1CC1 | 97.5
CCOC(=O)c1c(C)[nH]c(/C=C2\C(=O)Nc3ccccc32)c1C | 93.5
O=c1cc(N2CCOCC2)oc2c1ccc1ccccc12 | 101
CNC(=O)c1cc(Oc2ccc(NC(=O)Nc3ccc(Cl)c(C(F)(F)F)c3)cc2)ccn1 | 89.8
Cc1[nH]c(/C=C2\C(=O)Nc3ccc(S(=O)(=O)N(C)c4cccc(Cl)c4)cc32)c(C)c1C(=O)N1CCN(C)CC1 | 74.2
CCC(=O)Nc1ccc2ncnc(Nc3cccc(Br)c3)c2c1 | 94.9
O=C1NC(=O)c2c1c1c3ccccc3n3c1c1c2c2ccccc2n1C1CCC3O1 | 23.9
Cc1ccc(Nc2nccc(N(C)c3ccc4c(C)n(C)nc4c3)n2)cc1S(N)(=O)=O | 87

* * *

Target: CDK4 CCND3 (human) (UniProt P30281+P11802)
Sequence (P11802 whole entry, looked up): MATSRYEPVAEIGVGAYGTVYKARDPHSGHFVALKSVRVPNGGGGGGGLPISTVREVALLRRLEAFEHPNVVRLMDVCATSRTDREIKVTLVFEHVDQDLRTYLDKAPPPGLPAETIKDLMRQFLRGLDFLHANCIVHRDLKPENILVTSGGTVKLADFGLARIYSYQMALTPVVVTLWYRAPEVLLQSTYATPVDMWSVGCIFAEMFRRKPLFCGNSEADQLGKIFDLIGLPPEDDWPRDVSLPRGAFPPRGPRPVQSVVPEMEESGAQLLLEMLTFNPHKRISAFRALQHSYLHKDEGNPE
Sequence (P30281 whole entry, looked up): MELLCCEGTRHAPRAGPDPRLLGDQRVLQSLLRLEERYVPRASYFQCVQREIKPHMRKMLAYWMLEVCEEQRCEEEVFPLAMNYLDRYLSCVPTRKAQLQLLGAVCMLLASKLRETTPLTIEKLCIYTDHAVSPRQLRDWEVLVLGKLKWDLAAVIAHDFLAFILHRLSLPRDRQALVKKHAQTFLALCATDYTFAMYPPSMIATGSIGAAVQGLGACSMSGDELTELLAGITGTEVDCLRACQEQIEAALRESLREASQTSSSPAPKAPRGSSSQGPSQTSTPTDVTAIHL
Assay: radiometric filter-binding kinase assay, Kinase HotSpot
Conditions: compound 0.5 µM; ATP 10 µM

Compound | Assayed target | Unit tag | residual activity
CCN(CC)CCNC(=O)c1c(C)[nH]c(/C=C2\C(=O)Nc3ccc(F)cc32)c1C | CDK4 CCND3 (human) (UniProt P30281+P11802) | % | 93
Cc1ccc(Nc2nccc(N(C)c3ccc4c(C)n(C)nc4c3)n2)cc1S(N)(=O)=O | CDK4 CCND3 (human) (UniProt P30281+P11802) | % | 96
O=C(Nc1cccc(Nc2nccc(Nc3cccc(C(F)(F)F)c3)n2)c1)C1CC1 | CDK4 CCND3 (human) (UniProt P30281+P11802) | % | 103
Nc1ccc2ncnc(NCCc3ccc(Oc4ccccc4)cc3)c2c1 | CDK4 CCND3 (human) (UniProt P30281+P11802) | % | 109
Nc1ncnc2c1c(-c1ccc(Oc3ccccc3)cc1)cn2C1CCCC1 | CDK4 CCND3 (human) (UniProt P30281+P11802) | % | 108
Cc1nc(Nc2ncc(C(=O)Nc3c(C)cccc3Cl)s2)cc(N2CCN(CCO)CC2)n1 | CDK4 CCND3 (human) (UniProt P30281+P11802) | % | 99.1
CCC(=O)Nc1ccc2ncnc(Nc3cccc(Br)c3)c2c1 | CDK4 CCND3 (human) (UniProt P30281+P11802) | % | 90.4
O=S(=O)(c1cccc2cnccc12)N1CCCNCC1 | CDK4 CCND3 (human) (UniProt P30281+P11802) | % | 98.5
CNC(=O)c1cc(Oc2ccc(NC(=O)Nc3ccc(Cl)c(C(F)(F)F)c3)cc2)ccn1 | CDK4 CCND3 (human) (UniProt P30281+P11802) | % | 114
COc1ccc(COc2ccc(Cc3cnc(N)nc3N)cc2OC)cc1 | CDK4 CCND3 (human) (UniProt P30281+P11802) | % | 107
c1ccc(-c2n[nH]c3c2oc2ccccc23)cc1 | CDK4 CCND3 (human) (UniProt P30281+P11802) | % | 101
CO[C@H]1CC2CC[C@@H](C)[C@@](O)(O2)C(=O)C(=O)N2CCCC[C@H]2C(=O)OC([C@H](C)C[C@@H]2CC[C@@H](O)[C@H](OC)C2)CC(=O)[C@H](C)/C=C(\C)[C@@H](O)[C@@H](OC)C(=O)[C@H](C)C[C@H](C)/C=C/C=C/C=C/1C (some centres undefined) | CDK4 CCND3 (human) (UniProt P30281+P11802) | % | 104
Cc1ccc(NC2=CC(=O)c3sc(C)nc3C2=O)cc1 | CDK4 CCND3 (human) (UniProt P30281+P11802) | % | 93.7
Oc1cccc(-c2nc(N3CCOCC3)c3oc4ncccc4c3n2)c1 | CDK4 CCND3 (human) (UniProt P30281+P11802) | % | 92.5
CC(=O)c1ccc(N2CCOCC2)cc1O | CDK4 CCND3 (human) (UniProt P30281+P11802) | % | 96.4
CC#CC(=O)Nc1cc2c(Nc3ccc(F)c(Cl)c3)ncnc2cn1 | CDK4 CCND3 (human) (UniProt P30281+P11802) | % | 105
O=C1Nc2ccc(Cl)cc2/C1=C/c1cc(Cl)c(O)c(Cl)c1 | CDK4 CCND3 (human) (UniProt P30281+P11802) | % | 94.8
CNc1cc2c(Nc3cccc(Br)c3)ncnc2cn1 | CDK4 CCND3 (human) (UniProt P30281+P11802) | % | 120
CCN(CC)C(=O)c1ccc(Nc2nc(OCC3CCCCC3)c3nc[nH]c3n2)cc1 | CDK4 CCND3 (human) (UniProt P30281+P11802) | % | 59.2
CC(C)N(CCC(=O)c1ccc2ccccc2c1)Cc1ccccc1 | CDK4 CCND3 (human) (UniProt P30281+P11802) | % | 92.4
Cc1[nH]c(/C=C2\C(=O)Nc3ccc(S(=O)(=O)N(C)c4cccc(Cl)c4)cc32)c(C)c1C(=O)N1CCN(C)CC1 | CDK4 CCND3 (human) (UniProt P30281+P11802) | % | 101
COc1cc2ncnc(Nc3cccc(Cl)c3)c2cc1OC | CDK4 CCND3 (human) (UniProt P30281+P11802) | % | 103
Nc1ncnc2[nH]nc(Nc3ccc(F)cc3)c12 | CDK4 CCND3 (human) (UniProt P30281+P11802) | % | 111
Nc1cccc(-c2cc3c(Oc4cccc(O)c4)ncnc3[nH]2)c1 | CDK4 CCND3 (human) (UniProt P30281+P11802) | % | 92.8
COC[C@H]1OC(=O)c2coc3c2[C@@]1(C)C1=C(C3=O)[C@@H]2CCC(=O)[C@@]2(C)C[C@H]1OC(C)=O | CDK4 CCND3 (human) (UniProt P30281+P11802) | % | 98.8
CCN(CC)CCNC(=O)c1c(C)[nH]c(/C=C2\C(=O)Nc3ccc(Cl)cc32)c1C | CDK4 CCND3 (human) (UniProt P30281+P11802) | % | 86.3
O=c1cc(N2CCOCC2)oc2c1ccc1ccccc12 | CDK4 CCND3 (human) (UniProt P30281+P11802) | % | 96.8
CCCC(=O)Oc1ccc2[nH]c(C(=O)c3cc4ccccc4[nH]3)cc2c1 | CDK4 CCND3 (human) (UniProt P30281+P11802) | % | 103
Cc1ccc(S(=O)(=O)/C=C/C#N)cc1 | CDK4 CCND3 (human) (UniProt P30281+P11802) | % | 100
